Data credit: patent US10821115B2

Target: recombinant human Mcl-1 (residues 171-327) / Bim interaction (Homo sapiens (Human))
Assay: biochemical
Type: binding
Settings: 0.1 nM Mcl-1(171-327), 0.05 nM biotin-Bim (51-76); read-out: Mcl-1 HTRF IC50
property.label: pIC50
For clarity, pIC50 is expressed as the negative log10 of concentration in mol/L.

Known pIC50 results, listed for orientation:
## Task Return the recorded pIC50 value; entry: CO[C@@]1(CN2CCN(C(C)=O)CC2)/C=C/C[C@H](C)[C@@H](C)S(=O)(=O)NC(=O)c2ccc3c(c2)N(C[C@@H]2CC[C@H]21)C[C@@]1(CCCc2cc(Cl)ccc21)CO3 [Example 249]
## Result 10.20

## Task Return the recorded pIC50 value; entry: CO[C@@]1(CN2CC(CO)(CO)C2)/C=C/C[C@H](C)[C@@H](C)S(=O)(=O)NC(=O)c2ccc3c(c2)N(C[C@@H]2CC[C@H]21)C[C@@]1(CCCc2cc(Cl)ccc21)CO3 [Example 206]
## Result 9.65

## Task Return the recorded pIC50 value; entry: CO[C@]1(CN2CCN3CCOC[C@@H]3C2)/C=C/C[C@H](C)[C@@H](C)S(=O)(=O)NC(=O)c2ccc3c(c2)N(C[C@@H]2CC[C@H]21)C[C@@]1(CCCc2cc(Cl)ccc21)CO3 [Example 4]
## Result 9.94

## Task Return the recorded pIC50 value; entry: C[C@@H]1CS(=O)(=O)NC(=O)c2ccc3c(c2)N(C[C@@H]2CC[C@H]2[C@](O)(CN2CCN4CCOC[C@@H]4C2)CC[C@@H]1C)C[C@@]1(CCCc2cc(Cl)ccc21)CO3 [Example 405]
## Result 10.24

New cases:
## Task Return the recorded pIC50 value; entry: CO[C@]1(CN2CCN3CCOC[C@H]3C2)/C=C/C[C@H](C)[C@@H](C)S(=O)(=O)NC(=O)c2ccc3c(c2)N(C[C@@H]2CC[C@H]21)C[C@@]1(CCCc2cc(Cl)ccc21)CO3 [Example 58]
## Result 9.14

====

Molecular target: recombinant human Mcl-1 (residues 171-327) / Bim interaction (Homo sapiens (Human))
Experiment: biochemical
Type: binding
Conditions: TR-FRET, Mcl-1(171-327) / biotin-Bim (51-76); read-out: Mcl-1 HTRF IC50
property.label: IC50 (nM)
State just the number; it will be interpreted in nM.

Known IC50 results, listed for orientation:
## Task Return the recorded IC50 value; entry: CO[C@@]1(CC(=O)N(C)C)/C=C/C[C@H](C)[C@@H](C)S(=O)(=O)NC(=O)c2ccc3c(c2)N(C[C@@H]2CC[C@H]21)C[C@@]1(CCCc2cc(Cl)ccc21)CO3 [Example 100002]
## Result 0.071

## Task Return the recorded IC50 value; entry: C[C@@H]1[C@@H](C)CCC[C@@]2(OCCS2)[C@@H]2CC[C@H]2CN2C[C@@]3(CCCc4cc(Cl)ccc43)COc3ccc(cc32)C(=O)NS1(=O)=O [Example 100115]
## Result 4.49

New cases:
## Task Return the recorded IC50 value; entry: CO[C@@]1(C[C@@H](O)C(C)C)/C=C/C[C@H](C)[C@@H](C)S(=O)(=O)NC(=O)c2ccc3c(c2)N(C[C@@H]2CC[C@H]21)C[C@@]1(CCCc2cc(Cl)ccc21)CO3 (racemic) [Example 100326]
## Result 0.615

## Task Return the recorded IC50 value; entry: C[C@@H]1[C@@H](C)C/C=C/[C@](O)(c2cncnc2)[C@@H]2CC[C@H]2CN2C[C@@]3(CCCc4cc(Cl)ccc43)COc3ccc(cc32)C(=O)NS1(=O)=O [Example 100410]
## Result 0.127

## Task Return the recorded IC50 value; entry: C[C@@H]1[C@@H](C)CCC[C@](C)(CN2CCN3CCOC[C@@H]3C2)[C@@H]2CC[C@H]2CN2C[C@@]3(CCCc4cc(Cl)ccc43)COc3ccc(cc32)C(=O)NS1(=O)=O [Example 100300]
## Result 0.109

====

Here the recorded pIC50 is given for each entry.
Biological target: recombinant human Mcl-1 (residues 171-327) / Bim interaction (Homo sapiens (Human))
Assay: biochemical
Type: binding
Settings: read-out: Mcl-1 HTRF IC50
For clarity, pIC50 is expressed as the negative log10 of concentration in mol/L.

Known pIC50 results, listed for orientation:
## Task Return the recorded pIC50 value; entry: C[C@@H]1[C@@H](C)CCC[C@@](O)(CS(=O)(=O)N(C)C)[C@@H]2CC[C@H]2CN2C[C@@]3(CCCc4cc(Cl)ccc43)COc3ccc(cc32)C(=O)NS1(=O)=O [Example 100100]
## Result 8.68

## Task Return the recorded pIC50 value; entry: C=C(C)[C@@H](O)C[C@]1(OC)/C=C/C[C@H](C)[C@@H](C)S(=O)(=O)NC(=O)c2ccc3c(c2)N(C[C@@H]2CC[C@H]21)C[C@@]1(CCCc2cc(Cl)ccc21)CO3 [Example 100471]
## Result 9.55

Alright, here's another molecule for you.
## Task Return the recorded pIC50 value; entry: C[C@@H]1[C@@H](C)C/C=C/[C@](O)(Cc2nccs2)[C@@H]2CC[C@H]2CN2C[C@@]3(CCCc4cc(Cl)ccc43)COc3ccc(cc32)C(=O)NS1(=O)=O [Example 100246]
## Result 9.49

====

Biological target: recombinant human Mcl-1 (residues 171-327) / Bim interaction (Homo sapiens (Human), UniProt Q07820)
Sequence (Q07820 171-327): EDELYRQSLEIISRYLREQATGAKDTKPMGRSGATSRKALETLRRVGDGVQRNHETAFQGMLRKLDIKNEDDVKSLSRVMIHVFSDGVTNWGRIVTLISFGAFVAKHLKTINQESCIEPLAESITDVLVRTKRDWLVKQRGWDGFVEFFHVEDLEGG
Experiment: biochemical
Format: binding
Settings: TR-FRET, Mcl-1(171-327) / biotin-Bim (51-76); read-out: Mcl-1 HTRF IC50
pIC50: −log10 of the molar value.
If the reported pIC50 equals or exceeds 9, assign MET. If not, assign NOT MET.

## Task Say whether C[C@@H]1[C@@H](C)C/C=C/[C@@](O)(c2ncnn2C)C2CC[C@H]2CN2C[C@@]3(CCCc4cc(Cl)ccc43)COc3ccc(cc32)C(=O)NS1(=O)=O (stereo in doubt) shows pIC50 of 9 or more.
## Result MET

## Task Say whether C[C@H]1CC/C=C/[C@@](C)(O)[C@@H]2CC[C@H]2CN2C[C@@]3(CCCc4cc(Cl)ccc43)COc3ccc(cc32)C(=O)NS1(=O)=O [Example 100030] shows pIC50 of 9 or more.
## Result NOT MET

## Task Say whether CO[C@@]1(C[C@H](O)c2ccccn2)/C=C/C[C@H](C)[C@@H](C)S(=O)(=O)NC(=O)c2ccc3c(c2)N(C[C@@H]2CC[C@H]21)C[C@@]1(CCCc2cc(Cl)ccc21)CO3 (single isomer, unassigned) [Example 100490] shows pIC50 of 9 or more.
## Result MET

New cases:
## Task Say whether CC[C@]1(O)CCC[C@H](C)[C@@H](C)S(=O)(=O)NC(=O)c2ccc3c(c2)N(C[C@@H]2CC[C@H]21)C[C@@]1(CCCc2cc(Cl)ccc21)CO3 shows pIC50 of 9 or more.
## Result NOT MET

## Task Say whether CO[C@@]1(Cc2nc(CO)c(C)o2)/C=C/C[C@H](C)[C@@H](C)S(=O)(=O)NC(=O)c2ccc3c(c2)N(C[C@@H]2CC[C@H]21)C[C@@]1(CCCc2cc(Cl)ccc21)CO3 shows pIC50 of 9 or more.
## Result MET

## Task Say whether COC(=O)[C@@H](C)NC(=O)C[C@]1(OC)/C=C/C[C@H](C)[C@@H](C)S(=O)(=O)NC(=O)c2ccc3c(c2)N(C[C@@H]2CC[C@H]21)C[C@@]1(CCCc2cc(Cl)ccc21)CO3 shows pIC50 of 9 or more.
## Result MET

## Task Say whether C[C@@H]1[C@@H](C)C/C=C/[C@](C)(OCCN2CCOCC2)[C@@H]2CC[C@H]2CN2C[C@@]3(CCCc4cc(Cl)ccc43)COc3ccc(cc32)C(=O)NS1(=O)=O shows pIC50 of 9 or more.
## Result MET

## Task Say whether C[C@@H]1[C@@H](C)C/C=C/[C@@](O)(CC(=O)N2CCN3CCOC[C@@H]3C2)[C@@H]2CC[C@H]2CN2C[C@@]3(CCCc4cc(Cl)ccc43)COc3ccc(cc32)C(=O)NS1(=O)=O shows pIC50 of 9 or more.
## Result MET

## Task Say whether C[C@@H]1[C@@H](C)C/C=C/[C@](O)(c2nccn2C)[C@@H]2CC[C@H]2CN2C[C@@]3(CCCc4cc(Cl)ccc43)COc3ccc(cc32)C(=O)NS1(=O)=O [Example 100198] shows pIC50 of 9 or more.
## Result MET

====

Here the recorded pIC50 is given for each entry.
Target: recombinant human Mcl-1 (residues 171-327) / Bim interaction (Homo sapiens (Human), UniProt Q07820)
Test: biochemical
Assay type: binding
Settings: TR-FRET, Mcl-1(171-327) / biotin-Bim (51-76); read-out: Mcl-1 HTRF IC50
For clarity, pIC50 is expressed as the negative log10 of concentration in mol/L.

## Task Return the recorded pIC50 value; entry: C[C@@H]1[C@@H](C)CCC[C@@](O)(CC(=O)N2CCCC2)[C@@H]2CC[C@H]2CN2C[C@@]3(CCCc4cc(Cl)ccc43)COc3ccc(cc32)C(=O)NS1(=O)=O [Example 100107]
## Result 9.53

Alright, here's another compound for you.
## Task Return the recorded pIC50 value; entry: Cc1ccc([C@]2(O)/C=C/C[C@H](C)[C@@H](C)S(=O)(=O)NC(=O)c3ccc4c(c3)N(C[C@@H]3CC[C@H]32)C[C@@]2(CCCc3cc(Cl)ccc32)CO4)cn1 (single isomer, unassigned)
## Result 8.87
